# experimental.target: HCV core protein (core106) dimerization
# assay.notes: HCV core106 dimer disruption potency, late-stage follow-up, biochemical, AlphaScreen luminescence, powder samples (AID 651577)
# stated.conditions: AlphaScreen GST-/Flag-core106 dimerization
Calls of active or inactive are those of the source.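 Rule for the calls: active = IC50 at or below 10 µM; inactive = IC50 above 10 µM.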
Bench note: report the call from active, inactive

Reference set, count: 5
>>> discrete_label("Cc1ccc(Cc2c(C)nc3nc(SCC(=O)NCCN4CCN(S(=O)(=O)c5ccccc5)CC4)nn3c2C)cc1")
"active"
>>> discrete_label("Cc1ccc(Cc2c(C)nc3nc(SCC(=O)NCCN4CCCCC4)nn3c2C)cc1")
"inactive"
>>> discrete_label("Cc1ccc(Cc2c(C)nc3nc(SCC(=O)NCCN4CCCN(S(=O)(=O)c5ccc(C)cc5)CC4)nn3c2C)cc1")
"active"
>>> discrete_label("Cc1ccc(Cc2c(C)nc3nc(SCC(=O)NCCN4CCN(C(=O)OC(C)(C)C)CC4)nn3c2C)cc1")
"inactive"
>>> discrete_label("Cc1ccc(Cc2c(C)nc3nc(SCC(=O)NCCN4CCOCC4)nn3c2C)cc1")
"active"

Called result for `Cc1ccc(Cc2c(C)nc3nc(SCC(=O)NCCN4CCN(Cc5ccc(Cl)cc5)CC4)nn3c2C)cc1`
inactive

Same again, this time with `Cc1ccc(Cc2c(C)nc3nc(SCC(=O)NCCN4CCCN(S(=O)(=O)c5ccccc5)CC4)nn3c2C)cc1`
active

Same again, this time with Cc1ccc(Cc2c(CCc3ccccc3)nc3nc(SC(Cc4ccccc4)C(=O)NCCN4CCOCC4)nn3c2C)cc1 (stereo not drawn)
active
